Test: yeast MEP2-GFP fusion level changes, TOR pathway – flow cytometry, third cherry pick, S. cerevisiae, confirmation (AID 504321);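 further: median per-cell GFP fluorescence by flow cytometry across all yeast cells; ratio of sample to DMSO median GFP so 100% equals the DMSO level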
Settings: S. cerevisiae MEP2-GFP strain, 3 h, at 10 µM, stronger effect = higher value
measured.metric: GFP response vs DMSO (%)
Give just the numeric value; % need not be written.

Recorded results for 5 molecules are shown here.
molecule | units.of.measure | GFP response vs DMSO
O=C(N/N=C/c1ccccc1F)c1cccc2ccccc12 | % | 108
NC(=O)c1ccnc2c(O)cccc12 | % | 108
Brc1ccc2ncnc(NCc3ccccc3)c2c1 | % | 105
COc1ccc(OC)c(Nc2nc(NCCC(C)C)nc(N)c2[N+](=O)[O-])c1 | % | 108
OCc1ccnc2c(O)cccc12 | % | 108

"O=C(O)c1ccc2cccnc2c1O" has a reported GFP response vs DMSO of 101

Per the records, this molecule ( "C/C(=N\NC(=O)c1ccccc1)c1ccccc1F" ) has GFP response vs DMSO equal to 116

Lookup result for "CSc1nc(Nc2ccc(Cl)cc2)c(C#N)c(=O)[nH]1" ; measured GFP response vs DMSO: 108

Looking up "O=C(O)c1ccc(C=NNC(=O)c2cccc3ccccc23)cc1" , I found its GFP response vs DMSO recorded as 103

---

Assay: yeast MEP2-GFP fusion level changes, TOR pathway – flow cytometry, third cherry pick, S. cerevisiae, confirmation (AID 504321)
Details: S. cerevisiae MEP2-GFP strain, 3 h, at 10 µM, stronger effect = higher value
Active and inactive are the calls of the source.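 How the source made its calls: active means GFP response vs DMSO above 150% with enough events counted; inconclusive means fewer than 70 events counted for a yeast strain; inactive means the rest.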
measured.metric: GFP response vs DMSO

In the examples that follow, each entry is paired with its recorded GFP response vs DMSO.
molecule | result.value
CCCC(=O)Nn1cnc2c(c1=O)C1(CCCC1)Cc1ccccc1-2 | 105% (inactive)
Cn1cccc1C(=O)Nc1nc(-c2ccccn2)cs1 | 101% (inactive)
COc1ccc(N/C=C/C(=O)c2ccc(Cl)cc2)cc1 | 116% (inactive)

GFP response vs DMSO reported for this molecule "Cc1nc(Nc2ccc(Br)cc2Br)c([N+](=O)[O-])c(=O)[nH]1" : 112% (inactive)

Lab note: "COC(=O)c1cc(=O)c2cccc(OC)c2[nH]1" gave GFP response vs DMSO of 110% (inactive)

GFP response vs DMSO measured on "CC1=NNC(=O)/C1=C\c1cn(-c2ccccc2)nc1-c1ccc(F)cc1" = 131% (inactive)

Measured GFP response vs DMSO, "Nc1cccc2c1C(=O)c1ccc(Cl)cc1C2=O" : 116% (inactive)

response.value for "CCOC(=O)CS(=O)(=O)c1nc(-c2ccccc2)cc(C(F)(F)F)n1" (field: GFP response vs DMSO) = 151% (active)

---

Assay: yeast MEP2-GFP fusion level changes, TOR pathway – flow cytometry, third cherry pick, S. cerevisiae, confirmation (AID 504321)
Settings: S. cerevisiae MEP2-GFP strain, 3 h, at 10 µM
Calls of active or inactive are those of the source.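 Rule for the calls: active = GFP response vs DMSO above 150% with enough events counted; inconclusive = fewer than 70 events counted for a yeast strain; inactive = the rest.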
Tick one outcome: active, inactive

// known answers, use as guide
compound | qualitative.label
Cn1c(=O)c2c(n3cnnc13)-c1ccccc1CC21CCCC1 | inactive
Cc1ccc(NN2C(=O)C=C(c3ccccc3)C2=O)cc1 | inactive
COCCNc1nc(N)c([N+](=O)[O-])c(Nc2ccc(F)cc2)n1 | inactive

Could you now look at the following compound, please?
Dear all, I need the recorded test outcome for "Oc1ccc(Cl)c2cccnc12" , thank you.
inactive

---

Assay: yeast MEP2-GFP fusion level changes, TOR pathway – flow cytometry, third cherry pick, S. cerevisiae, confirmation (AID 504321)
Settings: S. cerevisiae MEP2-GFP strain, 3 h, at 10 µM
Calls of active or inactive are those of the source.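 How the source made its calls: active means GFP response vs DMSO above 150% with enough events counted; inconclusive means fewer than 70 events counted for a yeast strain; inactive means the rest.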
Parameter call: string, one of active, inactive

compound | qualitative.label
CC(=O)NC(C)c1cc(Cl)c2cccnc2c1O (configuration not stated) | inactive
COc1cccc(OCc2cc(C(=O)N3CCN(C)C(c4ccccc4)C3)no2)c1 (configuration not stated) | inactive
CS(=O)(=O)c1nc(-c2ccc(F)cc2)cc(C(F)(F)F)n1 | inactive
Cc1ccc2c(Cl)cc(Cl)c(O)c2n1 | active
COc1ccc(OC)c(N/C(C)=C/C(=O)c2ccccc2)c1 | inactive

Recorded test call requested for "Cc1cc(C)c(NC(=O)CC(=O)c2ccccc2)c(Cl)c1"
inactive

Give the logged outcome of this assay for the following compound: "Nc1cc(C(=O)O)c(N)c2c1C(=O)c1ccccc1C2=O"
inactive

Answer briefly: the call reported for "O=C1c2ccccc2C(=O)c2c1cccc2N(CCO)CCO" in this assay.
inactive

What call does the record list for "COc1cccc(N/C(C)=C/C(=O)c2ccc(Br)cc2)c1" ?
inactive

Query: recorded result category for "CC(=O)Nn1cnc2c(c1=O)C1(CCCC1)Cc1ccccc1-2" in this test
inactive

---

Experiment: yeast MEP2-GFP fusion level changes, TOR pathway – flow cytometry, third cherry pick, S. cerevisiae, confirmation (AID 504321);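 further: median per-cell GFP fluorescence by flow cytometry across all yeast cells; ratio of sample to DMSO median GFP so 100% equals the DMSO level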
Conditions: S. cerevisiae MEP2-GFP strain, 3 h, at 10 µM
The source made the active and inactive calls.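 The calls were made as follows: active = GFP response vs DMSO above 150% with enough events counted; inconclusive = fewer than 70 events counted for a yeast strain; inactive = the rest.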
Mark one answer only. Choices: active, inactive

compound | qualitative.label
O=C(Nc1ccccc1Cl)ON=C1c2ccccc2-c2ccccc21 | inactive

Outcome? "CNc1nc(N)c([N+](=O)[O-])c(Nc2ccccc2OC)n1"
inactive

Hi, do you know how "CC(C)Nc1ncnc2ccc(Br)cc12" came out in this test?
inactive

Field: outcome | Entry: "COc1ccccc1Nc1nc(NCCCN(C)C)nc(N)c1[N+](=O)[O-]"
inactive

---

Assay: yeast MEP2-GFP fusion level changes, TOR pathway – flow cytometry, third cherry pick, S. cerevisiae, confirmation (AID 504321);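 further: median per-cell GFP fluorescence by flow cytometry across all yeast cells; ratio of sample to DMSO median GFP so 100% equals the DMSO level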
Settings: S. cerevisiae MEP2-GFP strain, 3 h, at 10 µM, stronger effect = higher value
measured.metric: GFP response vs DMSO (%)
# output: bare number, implied unit %

Use the examples below as a reference point.
molecule | measured.metric | result.value
COCC(C)NC(=O)CCS(=O)(=O)c1nc(-c2ccc(OC)cc2)cc(C(F)(F)F)n1 (configuration not stated) | GFP response vs DMSO | 112
O=C(O)c1ccc2cccc(O)c2n1 | GFP response vs DMSO | 110
CCN(CC)c1ncnc2ccc(Br)cc12 | GFP response vs DMSO | 114
O=c1cc(C(F)(F)F)[nH]c2c(OC(F)(F)F)cccc12 | GFP response vs DMSO | 114
Oc1ccc(F)c2cccnc12 | GFP response vs DMSO | 116

Notebook: "Oc1c(I)cc(Cl)c2cccnc12" , GFP response vs DMSO read as 181

Documented GFP response vs DMSO of "Nc1ncnc(Nc2cc(Cl)cc(Cl)c2)c1[N+](=O)[O-]" : 108

---

Test: yeast MEP2-GFP fusion level changes, TOR pathway – flow cytometry, third cherry pick, S. cerevisiae, confirmation (AID 504321);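 further: median per-cell GFP fluorescence by flow cytometry across all yeast cells; ratio of sample to DMSO median GFP so 100% equals the DMSO level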
Conditions: S. cerevisiae MEP2-GFP strain, 3 h, at 10 µM, stronger effect = higher value
Below, each of the compounds is paired with its reported GFP response vs DMSO value.
Supply the numeric figure in %, leaving out any unit text.

compound | GFP response vs DMSO, %
Nc1c(O)ccc2c1C(=O)c1ccccc1C2=O | 105

// GFP response vs DMSO value for "Cc1ccc2nc(-c3ccc(NC(=O)c4cccnc4)cc3)oc2c1" : 114

response.value for "COc1cccc2c(O)cc(=O)n(C)c12" (field: GFP response vs DMSO) = 108

Entry "COc1ccc(Nc2nc(NN)nc(C)c2[N+](=O)[O-])cc1" ; GFP response vs DMSO = 101

Given item "C=CCNc1ncnc2ccc(Br)cc12" , the value recorded as its GFP response vs DMSO is 110

Consider "COc1ccccc1-c1cc(C(F)(F)F)nc(S(=O)(=O)CCCC(=O)O)n1" . Its measured GFP response vs DMSO is 110

Record "COCCCNc1nc(N)c([N+](=O)[O-])c(Nc2ccccc2OC)n1" , field GFP response vs DMSO: 110

Item: "O=C(Nc1cccc2ccccc12)ON=C1CCCCC1" | GFP response vs DMSO: 121

In plain terms, CC(=O)C(CC(=O)N1CCCC1)C(=O)Nc1ccc(Cl)cc1 (stereo unspecified) has a documented GFP response vs DMSO of 105

Memo: "CNc1nc(C)c([N+](=O)[O-])c(Nc2ccc(OC)cc2)n1" , reported GFP response vs DMSO: 105

The recorded GFP response vs DMSO for entry "O=C(N/N=C/c1ccccc1)c1cccc2ccccc12" equals 103

In plain terms, "CNc1nc(N)c([N+](=O)[O-])c(Nc2cccc(Cl)c2)n1" has a documented GFP response vs DMSO of 170

Recorded result, "COc1cc(=O)n(C)c2c(O)cccc12" , GFP response vs DMSO: 110

Per the record, "Cc1cccc(Nc2cc(=O)[nH]c(=O)[nH]2)c1C" has GFP response vs DMSO of 114

Note to self: GFP response vs DMSO recorded for "COc1ccc(OC)c2c(C)cc(C)nc12" was 108

Looking up "COc1ccc(N/C(C)=C/C(=O)c2ccccc2)cc1" , I see its GFP response vs DMSO listed as 103

Value source: PubChem BioAssay AID504321
